# SYSTEM: Glucose transporter (Leishmania mexicana)
# ASSAY_METHOD_TEXT: ST_JUDE_LEISH: Cytotoxicity at 2uM final concentration against transgenic Leishmania Mexicana promastigotes LmGT2 that are glucose transport deficient and complemented with the L. Mexicana glucose transporter 2. Activity is measured by DNA content using SYBR green in vitro
# Type: functional
I'd be grateful if you could share measured inhibition for these entries.
Numbers only; they are read as %.

inhibition in this record for CC(C)Nc1cc(C(=O)N[C@@H](Cc2ccccc2)[C@H](O)CNC(C)(C)c2cccc(C(F)(F)F)c2)cc(N2CCCCS2(=O)=O)c1 : 0.9

inhibition in this record for CN(C)Cc1cccc(-c2ccc(NC(=O)c3ccc4c(=O)n(Cc5cnn(C)c5)cnc4c3)cc2)c1 : 4.86

inhibition in this record for CN1CCC(NCc2ccc(-c3cccc(S(=O)(=O)NCC4CCCO4)c3)cc2)CC1 (stereo not drawn) : 6.61
